endpoint.label: melting point

If you can, please state the reported melting point value of CCCCOc1ccc(CCNc2ncnc(CC)c2C(=O)O)cc1 .
208 to 211 °C

If you can, please state the reported melting point value of Oc1ccc2c(-c3cccc4c(O)cccc34)noc2c1 .
258 to 259 °C

If you can, please state the reported melting point value of COC(C=Cc1ccccc1)=C1C(=O)C=C(C)C1=O .
86 °C

If you can, please state the reported melting point value of CC(C)(C)NC(=O)c1nn(-c2ccc(F)cc2Cl)c2c1C1CCC2C1 (configuration not stated) .
122 to 124 °C

If you can, please state the reported melting point value of C#CCOC(=O)C1C(C)=NC(N2CCCCC2)=C(C(=O)OCC)C1c1cccc([N+](=O)[O-])c1 (configuration not stated) .
121 °C

If you can, please state the reported melting point value of Oc1ccc(-c2ccc(C#CC3(O)CN4CCC3CC4)cc2)cc1 (configuration not stated) .
230 to 233 °C

If you can, please state the reported melting point value of COc1cc(OC)cc(N2CCN(C(=O)Nc3cc4c(nc3OC)CCC4)CC2)c1 .
143 to 144 °C

If you can, please state the reported melting point value of CC(=O)C(=Cc1ccc(C=O)c([N+](=O)[O-])c1)C(C)=O .
102 to 104 °C

If you can, please state the reported melting point value of COc1ccc(-c2nc(C(N)=O)c(N)nc2-c2ccccc2)cn1 .
208 to 212 °C

If you can, please state the reported melting point value of O=C1CCCN1C(=O)Oc1ccccc1Cl .
92 to 93 °C

If you can, please state the reported melting point value of NCc1cc(Cl)ccc1OCC(N)=O .
135 to 137 °C

If you can, please state the reported melting point value of CC(C)(C)OC(=O)Cc1c(Cl)nc(N)nc1C#N .
107 to 109 °C

If you can, please state the reported melting point value of Cn1nnnc1SCCCC(=O)c1ccco1 .
41 to 42 °C

If you can, please state the reported melting point value of Cc1cc(NC(=O)c2[nH]c(C)c(-c3nc4ccc(C(=O)c5ccccc5)cc4[nH]3)c2C)no1 .
271 to 273 °C

If you can, please state the reported melting point value of CC(C)c1nccn1Cc1ccc2c(c1)Cc1c(-c3ccsc3)n[nH]c1-2 .
260 to 262 °C

If you can, please state the reported melting point value of Nc1c(Cl)cccc1NC(=S)Nc1cscc1Cl .
276 to 280 °C

If you can, please state the reported melting point value of CSC1=C(Sc2ccc(C)cc2)CC2C3CCC4=CC(=O)C=CC4(C)C3(F)C(O)CC12C (configuration not stated) .
205 to 206 °C
